Tested on: NCI-H522
ASSAY_PROCEDURE: NCI tumour cell line growth inhibition, 48 h
Activity calls are given as the source filed them. No stated cut-off is given here; in the data, active = GI50 up to about 1.1 µM and inactive = higher.
Listing of entries alongside the reported GI50.

The following molecules have reported results that may help.
-- ask What does the record list as GI50 for COc1cc(C2c3cc4c(cc3[C@@H](Nc3ccc([N+](=O)[O-])cc3)C3COC(=O)[C@H]23)OCO4)cc(OC)c1O (stereo not given in full) ?
-- reply 1.63 µM (inactive)

-- ask If you can, please state the reported GI50 value of O=C1CSC(c2ccccc2[N+](=O)[O-])N1c1ccc(-n2c(-c3ccccc3)nc3ccccc3c2=O)cc1 (stereo not given) .
-- reply 22.4 µM (inactive)

-- ask # input molecule: O=C(CC1(O)CCCCC1)OC1CCCC1 ; wanted: its GI50
-- reply > 100 µM (inactive)

-- ask Which GI50 value belongs to COCOc1ccc(C2(O)Oc3cc(OCOC)ccc3C2C)c(O)c1 (stereo not given) ?
-- reply 18.2 µM (inactive)

Below: the item to evaluate.
-- ask Requested read-out: GI50. Entry: Cc1cc2nc(-c3cc(C(C)(C)C)c(O)c(C(C)(C)C)c3)[nH]c2cc1C
-- reply > 100 µM (inactive)

// provenance: ChEMBL document CHEMBL1201862
